TARGET_UNDER_TEST: HIV-1 YU-2 gp120 (HIV-1 (YU-2), UniProt P35961)
TEST_DESCRIPTION: SPR
pKd: −log10 of the molar value.
Short version: pKd at least 8 is 1 (yes), less is 0 (no).

Given the entry Fab m18 S65A (HCDR2) (Fab, V domains shown) VH: VQLLESGPGVVKPSETLSLTCTVSGASVNNYYWTWVRQPPGKGLEWIGNVYDSGDTNYNPSLSARLSLSMDTSKNQFSLRLSSVTAADTATYYCARYHRHFIRGPLSFDYWGRGTLVTVSS VL: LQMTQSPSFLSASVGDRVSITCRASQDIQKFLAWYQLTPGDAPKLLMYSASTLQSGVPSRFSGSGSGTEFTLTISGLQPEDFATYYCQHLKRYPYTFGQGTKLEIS , answer whether its pKd meets or surpasses 8.
0 (no)

Entry Fab m18 F99Y (HCDR3) (Fab, V domains shown) VH: VQLLESGPGVVKPSETLSLTCTVSGASVNNYYWTWVRQPPGKGLEWIGNVYDSGDTNYNPSLSSRLSLSMDTSKNQFSLRLSSVTAADTATYYCARYHRHYIRGPLSFDYWGRGTLVTVSS VL: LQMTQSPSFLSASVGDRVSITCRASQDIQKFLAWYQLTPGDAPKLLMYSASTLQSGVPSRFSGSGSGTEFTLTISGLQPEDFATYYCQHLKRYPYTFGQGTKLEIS : is its pKd no less than 8?
1 (yes)

API: above_or_equal(metric=pKd, cutoff=8) for item Fab m18 K31A (LCDR1) (Fab, V domains shown) VH: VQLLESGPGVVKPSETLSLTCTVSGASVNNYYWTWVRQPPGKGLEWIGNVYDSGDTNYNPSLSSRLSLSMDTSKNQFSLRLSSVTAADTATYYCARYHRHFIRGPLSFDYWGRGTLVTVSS VL: LQMTQSPSFLSASVGDRVSITCRASQDIQAFLAWYQLTPGDAPKLLMYSASTLQSGVPSRFSGSGSGTEFTLTISGLQPEDFATYYCQHLKRYPYTFGQGTKLEIS
1 (yes)

Quick check: does Fab m18 Y102A (HCDR3) (Fab, V domains shown) VH: VQLLESGPGVVKPSETLSLTCTVSGASVNNYYWTWVRQPPGKGLEWIGNVYDSGDTNYNPSLSSRLSLSMDTSKNQFSLRLSSVTAADTATYYCARYHRHFIRGPLSFDAWGRGTLVTVSS VL: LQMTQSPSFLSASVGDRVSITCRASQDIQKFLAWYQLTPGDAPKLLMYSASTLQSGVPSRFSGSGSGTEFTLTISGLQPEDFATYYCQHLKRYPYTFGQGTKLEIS have pKd greater than or equal to 8?
0 (no)

Reported pKd at or above 8? Fab m18 K31R (LCDR1) (Fab, V domains shown) VH: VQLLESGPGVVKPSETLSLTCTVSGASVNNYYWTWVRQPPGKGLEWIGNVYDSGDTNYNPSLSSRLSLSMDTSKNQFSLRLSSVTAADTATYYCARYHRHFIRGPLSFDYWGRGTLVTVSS VL: LQMTQSPSFLSASVGDRVSITCRASQDIQRFLAWYQLTPGDAPKLLMYSASTLQSGVPSRFSGSGSGTEFTLTISGLQPEDFATYYCQHLKRYPYTFGQGTKLEIS
0 (no)
